assayMethodText: NS1 protein of Zika virus - qHTS assay to identify small molecule inhibitors in human HEK 293 cells (AID 1347053); also: nearly all actives have a fitted effect of over 55% in size
protocolConditions: HEK293 ZIKV MR766 infection, NS1 TR-FRET, 24 h; series mostly up to 46.1 µM
Records with an inconclusive call do not appear. The source made the active and inactive calls. Calls follow the shape of the dose curve; as a rule, active = well fitted inhibition curve with a large enough effect; inconclusive = small, poorly fitted or top-dose-only effect; inactive = no such curve, though single readings can be large or run the other way.
Hello, when you answer, please use one of the following outcomes: active, inactive

Use these answered entries as a reference point.
NC(CP(=O)(O)O)C(=O)O (stereo not given) : inactive
c1cc2ccc3cccc4ccc(c1)c2c34 : inactive
CC(C)(O)C=CC(=O)[C@](C)(O)[C@H]1[C@H](O)C[C@]2(C)[C@@H]3CC=C4[C@@H](C=C(O)C(=O)C4(C)C)[C@]3(C)C(=O)C[C@@]12C : active
O=C(O)Cc1cnc[nH]1 : inactive

--- query ---
Query string: Recorded test call requested for CC(Cc1ccc(O)cc1)NCC(O)c1cc(O)cc(O)c1 (stereo not given)
Result string: inactive

Source listed as PubChem BioAssay (NCATS).
